- TARGET: UniProt P10636
- ASSAY_DETAILS: MCE Phenols Library screening, tau biosensor cell seeding assay (AvZ)
- Assay type: cell-based
- TEST_CONTEXT: average of raw data 1 and 2
Recorded av puncta, one value per entry.
The answer should be written as a number, with no unit following it.

CCc1ccc(O)cc1O	6604.27
O=C(/C=C/c1ccc(O)c(O)c1)c1ccc(O)cc1O	19090.8
O=C(O)C[C@@H]1C(=O)O[C@H]2[C@H](OC(=O)c3cc(O)c(O)c(O)c3)[C@@H](OC(=O)c3cc(O)c(O)c4c3[C@H]1[C@H](O)C(=O)O4)[C@H](OC(=O)c1cc(O)c(O)c(O)c1)O[C@@H]2COC(=O)c1cc(O)c(O)c(O)c1	117.372
O=C(/C=C/c1ccc(O)c2c1[C@H](C(=O)O)[C@@H](c1ccc(O)c(O)c1)O2)O[C@H](Cc1ccc(O)c(O)c1)C(=O)O	7079.11
COc1cc(O)c(C(=O)/C=C/c2ccccc2)c(OC)c1	17449.7
CCCOC(=O)c1ccc(O)cc1	24829.8

Prompt: Answer with reported av puncta of `COc1cc(O)cc(O)c1C(=O)/C=C/c1ccccc1`
Completion: 17936.7

Prompt: Answer with reported av puncta of `COc1ccc(-c2cc(=O)c3c(O)cc(O)cc3o2)cc1`
Completion: 18211.5

====

Recorded raw data 2, one value per entry.
- TARGET: UniProtKB P10636
- ASSAY_DETAILS: MCE Phenols Library screening, tau biosensor cell seeding assay (AvZ)
- Format: cell-based
- TEST_CONTEXT: puncta, replicate 2
The answer should be written as a number, with no unit following it.

O=c1c(O)c(-c2cc(O)c(O)c(O)c2)oc2cc(O)ccc12	3888.25
COc1ccc(-c2coc3cc(O)c(OC)c(O)c3c2=O)cc1	25454.1

Prompt: Specify the recorded raw data 2 for `O=C(O)C[C@@H]1C(=O)O[C@H]2[C@H](OC(=O)c3cc(O)c(O)c(O)c3)[C@@H](OC(=O)c3cc(O)c(O)c4c3[C@H]1[C@H](O)C(=O)O4)[C@H](OC(=O)c1cc(O)c(O)c(O)c1)O[C@@H]2COC(=O)c1cc(O)c(O)c(O)c1` , system: UniProtKB P10636.
Completion: 125.835

Prompt: Specify the recorded raw data 2 for `COc1cc2c(O)c3c(c(-c4ccc5c(c4)OCO5)c2cc1OC)C(=O)OC3` , system: UniProtKB P10636.
Completion: 2966.05

Prompt: Specify the recorded raw data 2 for O=C(O[C@@H]1Cc2c(O)cc(O)cc2O[C@H]1c1ccc(O)c(O)c1)c1cc(O)c(O)c(O)c1 [(-)-Catechin gallate] , system: UniProtKB P10636.
Completion: 1335.66

Prompt: Specify the recorded raw data 2 for O=C1c2c(O)cc(O)cc2O[C@H](c2cc(O)c(O)c(O)c2)[C@H]1O [Dihydromyricetin] , system: UniProtKB P10636.
Completion: 3319.03

Prompt: Specify the recorded raw data 2 for O=c1cc(-c2ccc(O)cc2)oc2cc(O)c([C@@H]3O[C@H](CO)[C@@H](O)[C@H](O)[C@H]3O[C@@H]3OC[C@H](O)[C@H](O)[C@H]3O)c(O)c12 [Isovitexin 2''-O-arabinoside] , system: UniProtKB P10636.
Completion: 10150.6

Prompt: Specify the recorded raw data 2 for COc1cc(C[C@@H](CO)[C@H](CO)Cc2ccc(O)c(OC)c2)ccc1O [(+)-Secoisolariciresinol] , system: UniProtKB P10636.
Completion: 23639.2

Prompt: Specify the recorded raw data 2 for `O=C(CCc1ccc(O)cc1)c1c(O)cc(O)cc1O` , system: UniProtKB P10636.
Completion: 7668.02

Prompt: Specify the recorded raw data 2 for `Oc1ccc2c(c1)OCO2` , system: UniProtKB P10636.
Completion: 1763.04

Prompt: Specify the recorded raw data 2 for C[C@@H]1O[C@@H](Oc2cc(O)c3c(=O)c(O)c(-c4ccc(O)c(O)c4)oc3c2)[C@H](O)[C@H](O)[C@H]1O [Vincetoxicoside B] , system: UniProtKB P10636.
Completion: 7653.58

Prompt: Specify the recorded raw data 2 for O=C(O)c1ccccc1O [Salicylic acid, reference compound] , system: UniProtKB P10636.
Completion: 12581.6

Prompt: Specify the recorded raw data 2 for COC(=O)c1ccccc1O [Methyl Salicylate] , system: UniProtKB P10636.
Completion: 3394.27

Prompt: Specify the recorded raw data 2 for `CCc1c(Cl)c(O)c(Cl)c(O)c1C(=O)O[C@H]1[C@H](O)[C@H](OC)[C@H](OC/C2=C\C=C\C[C@H](O)/C(C)=C/[C@H](CC)[C@@H](O[C@@H]3OC(C)(C)[C@@H](OC(=O)C(C)C)[C@H](O)[C@@H]3O)/C(C)=C/C(C)=C/C[C@@H]([C@@H](C)O)OC2=O)O[C@@H]1C` , system: UniProtKB P10636.
Completion: 20428.7

====

- TARGET: tau (Homo sapiens)
- Sequence (P10636 623-695 limits assumed): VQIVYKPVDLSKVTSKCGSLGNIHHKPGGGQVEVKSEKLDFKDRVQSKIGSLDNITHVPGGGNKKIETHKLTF
- ASSAY_DETAILS: MCE Phenols Library screening, tau biosensor cell seeding assay (AvZ)
- Assay type: cell-based
- TEST_CONTEXT: average puncta of the two replicates
METRIC: av puncta

Sample answers from the record:
C[C@@H]1O[C@@H](OC[C@H]2O[C@@H](Oc3c(-c4ccc(OCCO)c(OCCO)c4)oc4cc(OCCO)cc(O)c4c3=O)[C@H](O)[C@@H](O)[C@@H]2O)[C@H](O)[C@H](O)[C@H]1O [Troxerutin]	14474.7
COc1cccc(OC)c1C(=O)OCc1cc(O)ccc1O[C@@H]1O[C@H](CO)[C@@H](O)[C@H](O)[C@H]1O [Curculigoside]	15649.1
Oc1ccc2[nH]ccc2c1 [5-Hydroxyindole]	12522.7
CC(C)=CCc1cc2c(cc1O)O[C@H](c1ccc(O)cc1)CC2=O [Bavachin]	13401.9
O=c1cc(-c2ccc(O)cc2)oc2cc(O)c([C@@H]3O[C@H](CO)[C@@H](O)[C@H](O)[C@H]3O[C@@H]3OC[C@H](O)[C@H](O)[C@H]3O)c(O)c12 [Isovitexin 2''-O-arabinoside]	12810.9
COc1cc(C(C)=O)ccc1O [Apocynin]	11639.1
O=Cc1ccc(O)c(O)c1 [Protocatechualdehyde]	12680.1
O=C1c2ccccc2C(=O)c2c1ccc(O)c2O [Alizarin]	15284.3
O=C1c2ccccc2C(=O)c2c(O)c(O)cc(O)c21 [Purpurin]	14831.1
O=C(/C=C/c1ccc(O)cc1)c1ccccc1 [4-Hydroxychalcone]	14353.6

Prompt: Answer with reported av puncta of O=c1c(-c2ccc(O)c(O)c2)coc2c([C@@H]3O[C@H](CO)[C@@H](O)[C@H](O)[C@H]3O)c(O)ccc12 [3'-Hydroxypuerarin]
Completion: 13419.8

Prompt: Answer with reported av puncta of O=C([O-])C(O)Cc1ccc(O)c(O)c1.[Na+] (stereo not shown) [Danshensu (sodium salt)]
Completion: 14160.8

Prompt: Answer with reported av puncta of CCCCCCCCC[C@H](O)CC(=O)CCc1ccc(O)c(OC)c1 [10-Gingerol]
Completion: 12333.4

Prompt: Answer with reported av puncta of CCC1(c2ccc(O)cc2)NC(=O)N(C)C1=O (stereo not shown) [4-Hydroxymephenytoin]
Completion: 15044.9

Prompt: Answer with reported av puncta of C[C@@H]1O[C@@H](OC[C@H]2O[C@@H](Oc3c(-c4ccc(O)cc4)oc4cc(O)cc(O)c4c3=O)[C@H](O[C@@H]3O[C@@H](C)[C@H](O)[C@@H](O)[C@H]3O)[C@@H](O)[C@@H]2O)[C@H](O)[C@H](O)[C@H]1O [Clitorin]
Completion: 13858.4

Prompt: Answer with reported av puncta of Oc1ccc(/C=C/c2cc(O)cc(O)c2)cc1 [Resveratrol]
Completion: 13066.7

Prompt: Answer with reported av puncta of CC(C)=CCc1c(-c2ccc(O)cc2O)oc2c3c(cc(O)c2c1=O)OC(C)(C)C=C3 [Morusin]
Completion: 14314.5

====

Recorded raw data 2, one value per entry.
- TARGET: tau (Homo sapiens)
- ASSAY_DETAILS: MCE Phenols Library screening, tau biosensor cell seeding assay (AvZ)
- Assay type: cell-based
- TEST_CONTEXT: puncta, replicate 2
The answer should be written as a number, with no unit following it.

Prompt: Answer with reported raw data 2 of `C=C(C)[C@H](CC=C(C)C)Cc1c(O)cc(O)c2c1O[C@H](c1ccc(O)cc1OC)CC2=O`
Completion: 13319.6

Prompt: Answer with reported raw data 2 of COc1ccc(-c2oc3c(CCC(C)(C)O)c(O[C@@H]4O[C@H](CO)[C@@H](O)[C@H](O)[C@H]4O)cc(O)c3c(=O)c2O)cc1 [Maohuoside A]
Completion: 5935.58

Prompt: Answer with reported raw data 2 of `O=c1cc(-c2ccccc2)oc2cc(O[C@@H]3O[C@H](CO[C@@H]4O[C@H](CO)[C@@H](O)[C@H](O)[C@H]4O)[C@@H](O)[C@H](O)[C@H]3O)c(O)c(O)c12`
Completion: 2282.35

Prompt: Answer with reported raw data 2 of `O=c1c(-c2ccc(O)cc2)coc2cc(O)cc(O)c12`
Completion: 15235.1

Prompt: Answer with reported raw data 2 of COc1ccc(-c2oc3c(CC=C(C)C)c(O[C@@H]4O[C@H](CO)[C@@H](O)[C@H](O)[C@H]4O)cc(O)c3c(=O)c2O[C@@H]2O[C@@H](C)[C@H](O)[C@@H](O)[C@H]2O[C@@H]2OC[C@@H](O)[C@H](O)[C@H]2O)cc1 [Epimedin B]
Completion: 17918.4

Prompt: Answer with reported raw data 2 of O=C(O)CNC(=O)c1cccc(O)c1 [3-Hydroxyhippuric acid]
Completion: 7983.73
